Hello, the source for this data is PubChem BioAssay (NCI), in case you need it.

Answer each item with its documented growth.
System: SK-MEL-2 melanoma
Assay: NCI-60 one-dose screen, 48 h (100 = growth as untreated, 0 = no growth, -100 = all killed)
Conditions: 10 µM unless noted
This is part of a sample that, as a whole, favours compounds with a hit. Of some 83,000 tested, about 20% had one in any assay.
Numbers only, in %.

The following molecules have reported results that may help.
structure_notation: COc1ccc(S(=O)(=O)NCCCNc2nccc(-n3cnc4ccccc43)n2)cc1
growth / %: 103
--
structure_notation: Oc1ccc(-c2nnc(SCc3ccc(O)c4ncccc34)n2-c2ccccc2)cc1
growth / %: 38.1
--
structure_notation: O=C(/C=C1\C=CN(CCCCF)c2ccccc21)n1ccc2ccccc21
growth / %: 103
--
structure_notation: Cc1cc2nc(C(Cl)Cl)nc(-c3ccco3)n2n1
growth / %: 103

Now for another entry.
I am curious: what growth value has been reported for "C#Cc1ccc(NC(=O)c2ccc(/C=C/C(=O)c3nccn3C)cc2)c(F)c1" ?
103

====

System: SNB-19 CNS
Assay: NCI-60 one-dose screen, 48 h (100 = growth as untreated, 0 = no growth, -100 = all killed)
Conditions: 10 µM unless noted
About 83,000 compounds went through this panel and 20% of them were active in at least one assay; those are over-represented in the sample as a whole.
Give growth for every item shown.
One number for each entry, in %.

Dear colleague, could you send me growth for each of the items below? Thanks.
1. COc1cc(/C=N/n2cnc3oc(-c4ccccc4)cc3c2=N)cc(CN2CCOCC2)c1O
2. Cc1ccccc1/C=C/c1nn2c(-c3ccoc3C)nnc2s1
3. CC1(COc2ccc3ncc(C#Cc4cncc(C(=O)Nc5cc(C(C)(C)C)on5)c4)n3n2)COC1
4. Cc1ccc(NC(=O)c2ccc(CN3CCN(C)CC3)c(I)c2)cc1Oc1ccc(-c2[nH]nc3ncnc(N)c23)cc1
5. COc1ccc(-c2nc3cc(Cl)c(Cl)cc3n2CC(=O)N=Nc2c(O)[nH]c3ccc(Cl)cc23)cc1

[101, 90.8, 60.9, 96.5, 36.1]

====

Test system: A549/ATCC NSCLC
Test: NCI-60 one-dose screen, 48 h (100 = growth as untreated, 0 = no growth, -100 = all killed)
Conditions: 10 µM unless noted
About 83,000 compounds went through this panel and 20% of them were active in at least one assay; those are over-represented in the sample as a whole.
observed_property: growth (%)
Numbers only, in %.

compound: COc1cc(O)c2c(c1)/C=C/C[C@H](O)[C@H](O)C(=O)/C=C\C[C@H](C)OC2=O
growth / %: 58.6

For each of the compounds below, state growth.
1. O=c1[nH]c(CNc2ccc(NCc3c(-c4ccccc4)no[n+]3[O-])cc2)nc2c1cnn2-c1ccccc1
2. COc1ccc(/C=N/Nc2nc(Nc3ccccc3)nc(Nc3ccc(S(N)(=O)=O)cc3)n2)cc1
3. CC1CCc2c(sc3nc(SCC(=O)N/N=C/c4ccc(Cl)cc4)n(-c4ccccc4)c(=O)c23)C1 (stereo not given)
4. Oc1ccc(CSc2nnc(-c3cnccn3)o2)c2cccnc12
5. O=C(O)c1ccc(-n2cc(CNc3ccc(Cl)cc3)c(-c3ccc(F)cc3)n2)cc1
6. O=C(NCCNc1cc(-c2cn(-c3ccccc3)nc2-c2cccc(O)c2)ccn1)Nc1ccc(Cl)c(C(F)(F)F)c1

1. 63.8
2. 87.1
3. 101
4. 20.9
5. 85.4
6. 61.8

For each of the compounds below, state growth.
1. Cc1nc(-c2cc3ccccc3c(N3CCN(C)CC3)n2)cs1
2. C/C=C/C=C1\C[C@H]2CO[C@H](O2)C1=O
3. Cc1cc(Cl)cc(NS(=O)(=O)c2ccc(-c3cnc(C4CC4)o3)cc2)c1
4. CCN(CC)CCCC(C)NCC(=O)NC(c1ccc2c(c1)OCO2)c1cc(Cl)c2cccnc2c1O (stereo not given)
5. NC(N)=NS(=O)(=O)c1ccc(N=NC2C(=O)NN(c3ccccc3)C2=O)cc1 (stereo not given)
6. COc1cc(CNC(=O)/C=C/c2ccccc2)ccc1OCC(=O)NO
7. Nc1ccc(-c2nnc(SCc3ccc(O)c4ncccc34)n2-c2ccccc2)cc1

1. 97.7
2. 98.2
3. 31.8
4. 24.1
5. 104
6. 101
7. 14.1

For each of the compounds below, note its growth.
1. O=C(COc1ccc(C2SCC(=O)N2c2ccc(F)cc2)cc1)c1ccccc1 (stereo not given)
2. c1cncc(-c2cn3nc(-c4c[nH]c5ccccc45)sc3n2)c1
3. C/C(=C(/c1ccc(O)cc1)c1ccc(OCCN2CCCCCC2)cc1)c1ccccc1

[87.9, 57.8, 56.7]

Look up growth for the entries below, preserving their order.
1. CCOC(=O)c1nn(-c2ccccc2)c(=O)c2c(N)c(C#N)c(-c3cccs3)cc12
2. COc1ccc(N2C(=O)c3cc(OC)c(OC)cc3NC2SCc2ccccc2)cc1 (stereo not given)
3. COc1cc(-c2noc(C[C@@H](NC(=O)OCc3ccccc3)C(C)C)n2)cc(OC)c1OC
4. O=C(CN1CCN(c2cc(=O)n(-c3ccccc3)c3ccccc23)CC1)Nc1ccc([N+](=O)[O-])cc1
5. COc1ccc(-c2nnc(/N=C3/C(=O)Nc4ccc(Br)cc43)o2)cc1
6. COc1ccc(-c2oc3cc(O)cc(O)c3c(=O)c2OC)cc1O
7. CNC(=O)c1cc(Oc2ccc3nc(NC(=O)c4ccc(CN5CCN(C)CC5)c(C(F)(F)F)c4)sc3c2)ccn1
8. COc1cc2c3c(n(CCCNC4CCC4)c(=O)c2cc1OC)-c1cc2c(cc1C3=O)OCO2

1: 87.2; 2: 110; 3: 100; 4: 95.1; 5: 104; 6: 38; 7: 66.4; 8: -50.6

Consider the following items and state reported growth for each.
1. O=C1CSC(=O)N1Cc1cc2ccccc2nc1Cl
2. O=C(/C=C1\C=CN(CCCCCCF)c2ccccc21)n1ccc2ccccc21
3. CCNC(=O)Oc1ccc(/C(=C(/C)c2ccc(Cl)cc2)c2ccc(OCCN(C)C)cc2)cc1

1: 99.6; 2: 102; 3: 71.6

Answer for every listed entry: what is its growth? The entries follow.
1. COc1cc(-c2nc(SCc3ccc(C)cc3)[nH]c(=O)c2C#N)ccc1OCc1ccccc1
2. O=S(=O)(Nc1ccc(-n2cnc3cc(-c4ccc(O)cc4)ccc32)cc1)C1CC1
3. O=C(c1cccc(F)c1)n1ccc2cc(NC(=S)Nc3cccnc3)ccc21
4. O=C1Nc2ccc(Cl)cc2/C1=C/c1ccc(OCc2ccc(Br)cc2F)cc1
5. C=CCn1c(SCC(=O)Nc2cccc(C(=O)/C=C/c3ccccc3Cl)c2)nc2ccccc2c1=O
6. CN(c1ccc(Cl)cc1)S(=O)(=O)c1ccc(-c2cnc(C3CC3)o2)cc1
7. CCOC(=O)CC(=O)CSC1=NC2C(NN1)N(C)C(=O)N2C (stereo not given)

1: 102; 2: 82.2; 3: 98.7; 4: 102; 5: 86.2; 6: 24.3; 7: 102

====

System: T-47D breast
Test: NCI-60 one-dose screen, 48 h (100 = growth as untreated, 0 = no growth, -100 = all killed)
Settings: 10 µM unless noted
Compounds without any hit were thinned out: in the full panel of roughly 83,000, 20% have a hit.
What growth was measured for each of the following?
Answers are plain numbers, in %.

Examples with their reported growth follow.
compound: Oc1ccc(CSc2nnc(-c3ccc(Cl)cc3)o2)c2cccnc12
unit_abbreviation: %
reported_value: 18.5
--
compound: CCN(CC)Cc1c(-c2cccc(OC(F)(F)F)c2)[nH]c2ccc(N3CCCC3)cc2c1=O
unit_abbreviation: %
reported_value: 103
--
compound: CN1CCN(Cc2ccc(NC(=O)c3cncc(C#Cc4cnc5ccc(NC6CCOCC6)nn45)c3)cc2C(F)(F)F)CC1
unit_abbreviation: %
reported_value: -66.2
--
compound: O=C(O)CNS(=O)(=O)c1ccc(Oc2ccc(S(=O)(=O)NCC(=O)O)cc2)cc1
unit_abbreviation: %
reported_value: 95.5
--
compound: COC[C@@]1(C)CC[C@]2(C)CC[C@]3(C)C(=CC[C@@H]4[C@@]5(C)CCCNC(C)(C)[C@@H]5CC[C@]43C)C2C1 (stereo not given in full)
unit_abbreviation: %
reported_value: 70.5
--
compound: COc1cc(/C=N/n2cnc3oc(-c4ccccc4)cc3c2=N)cc(CN2CCOCC2)c1O
unit_abbreviation: %
reported_value: 81.6
--
compound: COc1ccc(Cn2cc3c(c2-c2cc(OC)c(OC)c(OC)c2)CCCc2cnoc2-3)cc1N
unit_abbreviation: %
reported_value: 51.5
--
compound: CCOC(=O)Nc1ccc(-c2nc(-c3cccc(O)c3)c(-c3ccnc(Br)c3)[nH]2)cc1
unit_abbreviation: %
reported_value: 14
--
compound: COc1ccc(Cn2cc3c(c2-c2cc(OC)c(OC)c(OC)c2)CCCc2cnoc2-3)cc1
unit_abbreviation: %
reported_value: 39.1
--
compound: CC(=O)Nc1ccc(NC(=O)Nc2cccc(-c3nc(-c4ccc(NC(=O)c5cccs5)cc4Cl)no3)c2)cc1C(F)(F)F
unit_abbreviation: %
reported_value: -59.4

I'm hoping you can list growth for every compound here, please.
1. Cc1cc(=O)n2nc(-c3cn(C)c4ccc(Cl)cc34)sc2n1
2. Clc1ccc(-c2csc(Nc3cccc(Nc4csc(-c5ccc(Cl)cc5)n4)c3)n2)cc1

50.8
26.8
